B1: library; a variant is named by its letters at N, in order (parent)
chain: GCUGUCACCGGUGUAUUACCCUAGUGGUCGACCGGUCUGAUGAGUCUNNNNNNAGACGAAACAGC

Variants of: B1
Test: FACS-Seq fitted mean relative fluorescence mCherry/BFP with ligand (log10 relative fluorescence); ligand: hypoxanthine (xanthine aptamer); ligand concentration (+) FACS-Seq: 5 mM; higher = higher reporter protein expression
Settings: HEK293T, ligand present: yes
Note to self: class labels come from recorded FACS-Seq fitted mean (log10), ranges listed here: lowest (below 0.4), middle (0.4 to below 0.6), highest (0.6 or more)

As a guide, the following entries are already answered.
{"mutation label": "UCCAAG", "class": "middle"}
{"mutation label": "GGUCCA", "class": "middle"}
{"mutation label": "AGGAGC", "class": "middle"}
{"mutation label": "AACCAC", "class": "lowest"}
{"mutation label": "UGUGCG", "class": "lowest"}
{"mutation label": "AACAAG", "class": "middle"}
{"mutation label": "UAUGGG", "class": "highest"}
{"mutation label": "UGUAGA", "class": "lowest"}
{"mutation label": "AGCGAG", "class": "middle"}
{"mutation label": "GAGACG", "class": "highest"}

Input line: Using the reported FACS-Seq fitted mean (log10), which band applies to AUUGCG ?
Output line: middle

Input line: Using the reported FACS-Seq fitted mean (log10), which band applies to AUUCUC ?
Output line: highest

Input line: Using the reported FACS-Seq fitted mean (log10), which band applies to GCGGAG ?
Output line: middle

Input line: Using the reported FACS-Seq fitted mean (log10), which band applies to GAAAGA ?
Output line: middle

Input line: Using the reported FACS-Seq fitted mean (log10), which band applies to GAGUAU ?
Output line: middle
